tested on: A549 (lung carcinoma); assay: MTT assay, cytotoxicity/growth inhibition; format: cell-based, human; settings: A549, 20 μM concentration, MTT, 48 h; 20 µM
Parameter threshold = 70%. Response is TRUE when Cytotoxic Activity (% Growth Inhibition) meets or exceeds it, else FALSE.

Worked set:
COc1cc(OC)cc(C(=O)OCC2=CCC3[C@]4(C)COC(c5ccccc5)O[C@@H]4CC[C@@]3(C)[C@@H]2/C=C/C2=CCOC2=O)c1 (stereo partly drawn) : FALSE
COc1ccc(CC(=O)OCC2=CCC3[C@](C)(CO)[C@H](O)CC[C@@]3(C)[C@@H]2/C=C/C2=CCOC2=O)cc1 (stereo partly drawn) : TRUE
C[C@]1(CO)C2CC=C(COC(=O)Cc3ccc(Cl)c(Cl)c3)[C@@H](/C=C/C3=CCOC3=O)[C@]2(C)CC[C@H]1O (stereo partly drawn) : TRUE

*Q* Determine whether measured Cytotoxic Activity (% Growth Inhibition) meets or exceeds 70% for Cc1cccc(C(=O)OCC2=CCC3[C@]4(C)COC(c5ccccc5)O[C@@H]4CC[C@@]3(C)[C@@H]2/C=C/C2=CCOC2=O)c1 (stereo partly drawn)
*A* FALSE

====

Known inhibition at 20 µM of a selection of compounds
test system: PC-3 (prostate carcinoma); experiment: MTT assay, cytotoxicity/growth inhibition; format: cell-based; details: Homo sapiens, 48 h, read-out: Cytotoxic Activity (% Growth Inhibition)
Write the answer as a number in %, unit excluded.

Example entries begin here.
C[C@]1(CO)C2CC=C(COC(=O)c3ccoc3)[C@@H](/C=C/C3=CCOC3=O)[C@]2(C)CC[C@H]1O (stereo partly shown) [Compound 9g] : 11
COc1cc(OC)cc(C(=O)OCC2=CCC3[C@]4(C)COC(c5ccccc5)O[C@@H]4CC[C@@]3(C)[C@@H]2/C=C/C2=CCOC2=O)c1 (stereo partly shown) [Compound 8j] : 55.8
C[C@]1(CO)C2CC=C(COC(=O)c3cccc(F)c3)[C@@H](/C=C/C3=CCOC3=O)[C@]2(C)CC[C@H]1O (stereo partly shown) [Compound 9c] : 0
C[C@@]12COC(c3ccccc3)O[C@@H]1CC[C@]1(C)C2CC=C(COC(=O)Cc2ccc(F)cc2)[C@H]1/C=C/C1=CCOC1=O (stereo partly shown) [Compound 8p] : 77
COc1cc(CC(=O)OCC2=CCC3[C@]4(C)COC(c5ccccc5)O[C@@H]4CC[C@@]3(C)[C@@H]2/C=C/C2=CCOC2=O)cc(OC)c1OC (stereo partly shown) [Compound 8u] : 70.9
CCCCCCCCCCCC(=O)OCC1=CCC2[C@]3(C)COC(c4ccccc4)O[C@@H]3CC[C@@]2(C)[C@@H]1/C=C/C1=CCOC1=O (stereo partly shown) [Compound 8y] : 32

Item: C[C@@]12COC(c3ccccc3)O[C@@H]1CC[C@]1(C)C2CC=C(COC(=O)c2ccc(Br)cc2F)[C@H]1/C=C/C1=CCOC1=O (stereo partly shown) [Compound 8m] | inhibition at 20 µM: 0

Item: C[C@@]12COC(c3ccccc3)O[C@@H]1CC[C@]1(C)C2CC=C(COC(=O)c2cccc(C(F)(F)F)c2)[C@H]1/C=C/C1=CCOC1=O (stereo partly shown) [Compound 8h] | inhibition at 20 µM: 54

Item: C[C@]1(CO)C2CC=C(COC(=O)Cc3ccc(I)cc3)[C@@H](/C=C/C3=CCOC3=O)[C@]2(C)CC[C@H]1O (stereo partly shown) [Compound 9r] | inhibition at 20 µM: 10.6

====

test system: PC-3 (prostate carcinoma); test: MTT assay, cytotoxicity/growth inhibition; assay type: cell-based; conditions: Homo sapiens, 48 h, read-out: Cytotoxic Activity (% Growth Inhibition)
REPORTED METRIC: inhibition at 20 µM (%)
Write the answer as a number in %, unit excluded.

Example entries begin here.
C[C@]1(CO)C2CC=C(COC(=O)c3cccc(Br)c3)[C@@H](/C=C/C3=CCOC3=O)[C@]2(C)CC[C@H]1O (stereo partly drawn) : 0
C[C@]1(CO)C2CC=C(COC(=O)c3cccc(Cl)c3)[C@@H](/C=C/C3=CCOC3=O)[C@]2(C)CC[C@H]1O (stereo partly drawn) : 0
C[C@@]12COC(c3ccccc3)O[C@@H]1CC[C@]1(C)C2CC=C(COC(=O)c2ccccc2C(F)(F)F)[C@H]1/C=C/C1=CCOC1=O (stereo partly drawn) : 55
COc1ccc(C(=O)OCC2=CCC3[C@](C)(CO)[C@H](O)CC[C@@]3(C)[C@@H]2/C=C/C2=CCOC2=O)cc1Cl (stereo partly drawn) : 71.4
COc1cc(OC)cc(C(=O)OCC2=CCC3[C@](C)(CO)[C@H](O)CC[C@@]3(C)[C@@H]2/C=C/C2=CCOC2=O)c1 (stereo partly drawn) : 70

Item: C[C@]1(CO)C2CC=C(COC(=O)Cc3ccccc3)[C@@H](/C=C/C3=CCOC3=O)[C@]2(C)CC[C@H]1O (stereo partly drawn) | inhibition at 20 µM: 15

====

test system: PC-3 (prostate carcinoma); assay: MTT assay, cytotoxicity/growth inhibition; assay type: cell-based; details: Homo sapiens, 48 h, read-out: Cytotoxic Activity (% Growth Inhibition)
REPORTED METRIC: inhibition at 20 µM (%)
Write the answer as a number in %, unit excluded.

Example entries begin here.
CCCCCCCC(=O)OCC1=CCC2[C@]3(C)COC(c4ccccc4)O[C@@H]3CC[C@@]2(C)[C@@H]1/C=C/C1=CCOC1=O (some centres unmarked) : 49
C[C@]1(CO)C2CC=C(COC(=O)Cc3ccc(F)cc3)[C@@H](/C=C/C3=CCOC3=O)[C@]2(C)CC[C@H]1O (some centres unmarked) : 44
COc1ccc(CC(=O)OCC2=CCC3[C@](C)(CO)[C@H](O)CC[C@@]3(C)[C@@H]2/C=C/C2=CCOC2=O)cc1 (some centres unmarked) : 27.6
C[C@@]12COC(c3ccccc3)O[C@@H]1CC[C@]1(C)C2CC=C(COC(=O)Cc2ccc(Cl)c(Cl)c2)[C@H]1/C=C/C1=CCOC1=O (some centres unmarked) : 70.3
COc1cccc(C(=O)OCC2=CCC3[C@](C)(CO)[C@H](O)CC[C@@]3(C)[C@@H]2/C=C/C2=CCOC2=O)c1 (some centres unmarked) : 7
C[C@@]12COC(c3ccccc3)O[C@@H]1CC[C@]1(C)C2CC=C(COC(=O)Cc2ccccc2)[C@H]1/C=C/C1=CCOC1=O (some centres unmarked) : 0
C[C@]1(CO)C2CC=C(COC(=O)c3cccc(C(F)(F)F)c3)[C@@H](/C=C/C3=CCOC3=O)[C@]2(C)CC[C@H]1O (some centres unmarked) : 29

Now consider a different compound.
Item: C[C@]1(CO)C2CC=C(COC(=O)Cc3ccc(Cl)cc3)[C@@H](/C=C/C3=CCOC3=O)[C@]2(C)CC[C@H]1O (some centres unmarked) | inhibition at 20 µM: 38

====

Known inhibition at 20 µM of a selection of compounds
test system: PC-3 (prostate carcinoma); test: MTT assay, cytotoxicity/growth inhibition; format: cell-based; settings: Homo sapiens, 48 h, read-out: Cytotoxic Activity (% Growth Inhibition)
Write the answer as a number in %, unit excluded.

COc1ccc(CC(=O)OCC2=CCC3[C@]4(C)COC(c5ccccc5)O[C@@H]4CC[C@@]3(C)[C@@H]2/C=C/C2=CCOC2=O)cc1 (stereo partly shown) : 75
C[C@@]12COC(c3ccccc3)O[C@@H]1CC[C@]1(C)C2CC=C(COC(=O)c2cccc(Br)c2)[C@H]1/C=C/C1=CCOC1=O (stereo partly shown) : 0
Cc1ccc(CC(=O)OCC2=CCC3[C@](C)(CO)[C@H](O)CC[C@@]3(C)[C@@H]2/C=C/C2=CCOC2=O)cc1 (stereo partly shown) : 52
CCCCCCCCCCCC(=O)OCC1=CCC2[C@](C)(CO)[C@H](O)CC[C@@]2(C)[C@@H]1/C=C/C1=CCOC1=O (stereo partly shown) : 66
C[C@]1(CO)C2CC=C(COC(=O)c3ccc(Br)cc3F)[C@@H](/C=C/C3=CCOC3=O)[C@]2(C)CC[C@H]1O (stereo partly shown) : 78.9

Now consider a different compound.
Entry C[C@]1(CO)C2CC=C(COC(=O)c3cccc(I)c3)[C@@H](/C=C/C3=CCOC3=O)[C@]2(C)CC[C@H]1O (stereo partly shown) under PC-3 (prostate carcinoma) had inhibition at 20 µM of 49

====

test system: PC-3 (prostate carcinoma); assay: MTT assay, cytotoxicity/growth inhibition; type: cell-based; conditions: Homo sapiens, 48 h, read-out: Cytotoxic Activity (% Growth Inhibition)
Known inhibition at 20 µM of a selection of compounds
Write the answer as a number in %, unit excluded.

C[C@@]12COC(c3ccccc3)O[C@@H]1CC[C@]1(C)C2CC=C(COC(=O)c2ccoc2)[C@H]1/C=C/C1=CCOC1=O (stereo partly drawn) : 25
C[C@@]12COC(c3ccccc3)O[C@@H]1CC[C@]1(C)C2CC=C(COC(=O)c2cccc(I)c2)[C@H]1/C=C/C1=CCOC1=O (stereo partly drawn) : 0
C[C@@]12COC(c3ccccc3)O[C@@H]1CC[C@]1(C)C2CC=C(COC(=O)c2cccc(Cl)c2)[C@H]1/C=C/C1=CCOC1=O (stereo partly drawn) : 0
C[C@]1(CO)C2CC=C(COC(=O)Cc3ccc(Cl)c(Cl)c3)[C@@H](/C=C/C3=CCOC3=O)[C@]2(C)CC[C@H]1O (stereo partly drawn) : 26.5
COc1cc(CC(=O)OCC2=CCC3[C@](C)(CO)[C@H](O)CC[C@@]3(C)[C@@H]2/C=C/C2=CCOC2=O)cc(OC)c1OC (stereo partly drawn) : 48.7

Item: C[C@@]12COC(c3ccccc3)O[C@@H]1CC[C@]1(C)C2CC=C(COC(=O)Cc2ccc(I)cc2)[C@H]1/C=C/C1=CCOC1=O (stereo partly drawn) | inhibition at 20 µM: 77
